- method_notes: Compound solubility in water
- Format: physicochemical
attribute_measured: solubility (µg/mL)

Answered cases to consult:
Cc1cc(-c2cccc(C#N)c2)nc2c(C(=O)NC(C3CC3)C(F)(F)F)ncn12 (stereo not drawn) = 3.8
Cc1cc(Oc2ccccc2F)nc2c(C(=O)N[C@@H](C)C3CC3)ncn12 = 27.7
CCc1cc(-c2cccc(OC)n2)nc2c(C(=O)NC(C3CC3)C(F)(F)F)ncn12 (stereo not drawn) = 0.7
COc1cc(C)nc2c(C(=O)NC(c3ccc(F)cc3)C(F)(F)F)ncn12 (stereo not drawn) = 6.9
CC[C@H](C)NC(=O)c1ncn2c(C)cc(-c3cccc(F)c3)nc12 = 18.6

I = C#Cc1cccc(C2(NC(=O)c3ncn4c(C)cc(C)nc34)CC2)c1
II = Cc1cc(-c2ccccn2)nc2c(C(=O)N[C@@H](C)c3ccccc3F)ncn12
Query :: Which of these two has the smaller recorded solubility: I or II ? Answer format: the label of the selected item.
Result :: II
(II: 0.9 µg/mL, I: 19.7 µg/mL)

* * *

- method_notes: Compound solubility in water
- Type: physicochemical
attribute_measured: solubility (mg/mL)

These solved cases illustrate the format of a correct answer.
COc1cccc(-c2cc(C)n3cnc(C(=O)NC(C)C4CC4)c3n2)c1 (stereo not shown) = 0.0078
Cc1cc(Cl)nc2c(C(=O)NC(c3ccc(F)cc3)C(F)(F)F)ncn12 (stereo not shown) = 0.0104
COCc1cc(C)n2cnc(C(=O)NC(c3ccc(F)cc3)C(F)(F)F)c2n1 (stereo not shown) = 0.0247
COCc1cc(-c2ccc(F)cc2)n2cnc(C(=O)N[C@@H](C)C3CC3)c2n1 = 0.0435
Cc1cc(-c2cccc(F)c2)nc2c(C(=O)NC(C)(C)C3CC3)ncn12 = 0.0011
C#CC(C)(C)NC(=O)c1ncn2c(C)cc(-c3cc(F)cc(F)c3)nc12 = 0.0003
CO[C@H]1CC[C@@H](C(C)(C)NC(=O)c2ncn3c(C)cc(-c4cccnc4)nc23)CC1 = 0.0193
Cc1cc(C)n2cnc(C(=O)NC(C)(C)C3CC4(CCC4)C3)c2n1 = 0.0015
CCNc1cc(C)n2cnc(C(=O)NC(c3ccc(F)cc3)C(F)(F)F)c2n1 (stereo not shown) = 0.0022
COCCOc1cccc(-c2cc(C)n3cnc(C(=O)N[C@@H](C)C4CC4)c3n2)c1 = 0.016

a = Cc1cc(-n2ccc(Cl)n2)nc2c(C(=O)NC(C)(C)C3CC3)ncn12
b = Cc1cc(-c2cnsc2)nc2c(C(=O)NC(C)(C)C3CC3)ncn12
Query :: Could you tell me which of a and b has the lower solubility reading? When you have decided, please share the label of that item.
Result :: b

* * *

Item-by-item account of activation at 0.1 µM
- assayed_target: glucocerebrosidase (Gcase) (Homo sapiens)
- Sequence (P04062 40-536): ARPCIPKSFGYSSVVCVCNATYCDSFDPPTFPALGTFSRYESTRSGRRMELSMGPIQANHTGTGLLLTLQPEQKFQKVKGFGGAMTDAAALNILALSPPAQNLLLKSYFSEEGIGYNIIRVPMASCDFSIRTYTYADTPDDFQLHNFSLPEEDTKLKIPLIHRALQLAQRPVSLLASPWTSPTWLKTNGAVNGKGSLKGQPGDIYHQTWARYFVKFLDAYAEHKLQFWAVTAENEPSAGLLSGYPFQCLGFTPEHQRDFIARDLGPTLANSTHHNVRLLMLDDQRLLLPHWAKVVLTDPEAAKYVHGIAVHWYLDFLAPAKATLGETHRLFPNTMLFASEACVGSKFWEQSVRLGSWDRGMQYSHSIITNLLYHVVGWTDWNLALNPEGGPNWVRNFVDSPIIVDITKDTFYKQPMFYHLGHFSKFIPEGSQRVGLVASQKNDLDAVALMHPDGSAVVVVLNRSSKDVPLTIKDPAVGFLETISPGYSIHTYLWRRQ
- method_notes: Glucocerebrosidase (Gcase) activation assay, 4-methylumbelliferyl-beta-D-glucopyranoside substrate, with saposin C
- Type: biochemical
- conditions_used: 0.1 μM test compound; read-out: Percent Gcase Activation 0.1 μM Test Compound

Before answering, review these 3 worked examples.
CCc1cc(-c2ccc(F)cc2)nc2c(C(=O)N[C@@H](C)C3CC3)ncn12 = > 20%
COCCOc1cc(C)n2cnc(C(=O)N[C@@H](C)C3CC3)c2n1 = < 10%
Cc1cc(C2CCCOC2)nc2c(C(=O)NC(C)(C)C3CC3)ncn12 (stereo not shown) = < 10%

Query :: Look up and state reported activation at 0.1 µM for CCOc1cccc(-c2cc(C)n3cnc(C(=O)NC(C)C(F)(F)F)c3n2)c1 (stereo not shown)
Result :: > 20%

Query :: Supply reported activation at 0.1 µM belonging to this compound: `Cc1cc(-c2ccccn2)nc2c(C(=O)N[C@@H](C)c3ccccc3F)ncn12`
Result :: 10 to 20%

Query :: Respond only with activation at 0.1 µM recorded for COc1cccc(-c2cc(C)n3cnc(C(=O)NC(C)C(F)(F)F)c3n2)c1 (stereo not shown)
Result :: > 20%
